Tested on: FLX1
Test: cell viability z-score within plate (CellTiter-Glo), mean of 3 biological replicates; higher = higher viability relative to plate (less growth inhibition)
Conditions: 2 µM; time (hr): 120
Hi all, reminder that labels come from cell viability z-score within plate, split as range 1 (below -0.4), range 2 (-0.4 to below 0.6), range 3 (0.6 or more)

C[S+]([O-])c1ccc(-c2nc(-c3ccc(F)cc3)c(-c3ccncc3)[nH]2)cc1 (centres undefined): range 1
COCC(=O)NC/C=C/c1ccc2ncnc(Nc3ccc(Oc4ccc(C)nc4)c(C)c3)c2c1: range 2

Textbook exercise: identify the category of the compound given here, `Nc1ccc(C(=O)Nc2cccc(-c3nc(N4CCOCC4)c4oc5ncccc5c4n3)c2)cn1` , according to its measured value.
range 3

Textbook exercise: identify the category of the compound given here, Cc1ccc(F)c(NC(=O)Nc2ccc(-c3cccc4[nH]nc(N)c34)cc2)c1 [Linifanib (ABT-869)] , according to its measured value.
range 2

Textbook exercise: identify the category of the compound given here, N#Cc1c(NC(=O)c2cccc3ccccc23)sc2c1CCCC2 [JNK Inhibitor IX] , according to its measured value.
range 2

Textbook exercise: identify the category of the compound given here, `Cn1cc(-c2ccc3nnc(C(F)(F)c4ccc5ncccc5c4)n3n2)cn1` , according to its measured value.
range 2

Textbook exercise: identify the category of the compound given here, `Cn1c(=O)c(F)c(Nc2ccc(I)cc2F)c2c(=O)n(C[C@@H](O)CO)cnc21` , according to its measured value.
range 3

Textbook exercise: identify the category of the compound given here, Cc1cc(C)c(/C=C2\C(=O)Nc3ccccc32)[nH]1 [Semaxanib (SU5416)] , according to its measured value.
range 1

====

Test system: FLX1 + dox-induced PRKAR1A G325D
Experiment: difference in log2 fold change of viability vs plate median (dox-induced PRKAR1A G325D minus uninduced); higher = compound less effective when PKA is inhibited
Details: concentration: not stated (2 or 5 uM); 5 days
value_type: difference in log2 fold change of viability

Use the examples below as a reference point.
CNC(=O)Nc1ccc(-c2nc(N3CC4CCC(C3)O4)c3cnn(C4CCC5(CC4)OCCO5)c3n2)cc1: 1.48
Cc1ccccc1CN1C2=NCCN2C(=O)C2=C1CCN(Cc1ccccc1)C2: -0.0375
COc1cc2ncnc(Nc3ccc(Cl)cc3F)c2cc1OC: -0.233

// input: 2 molecules below; output: difference in log2 fold change of viability for each
1. Cn1cc(-c2ccc3ncc(Cc4ccc5ncccc5c4)n3n2)cn1
2. COc1cc2nccc(Oc3ccc(NC(=O)C4(C(=O)Nc5ccc(F)cc5)CC4)cc3)c2cc1OC

1: -0.0241; 2: 0.457

====

System: FLX1
Assay: cell viability z-score within plate (CellTiter-Glo), mean of 3 biological replicates; higher = higher viability relative to plate (less growth inhibition)
Details: 2 µM; time (hr): 120
API: label(entry) gives y if the entry's cell viability z-score within plate is strictly smaller than 0.004; on equality or larger values it gives n.

NC1(c2ccc(-c3nc4ccn5c(=O)[nH]nc5c4cc3-c3ccccc3)cc2)CCC1: y

Now let's try a different one.
Determine whether this molecule shows cell viability z-score within plate lower than 0.004 (ties excluded): `O=c1ncn2nc(Sc3ccc(F)cc3F)ccc2c1-c1c(Cl)cccc1Cl`
y

====

Tested on: FLX1
Experiment: cell viability z-score within plate (CellTiter-Glo), mean of 3 biological replicates; higher = higher viability relative to plate (less growth inhibition)
Conditions: 2 µM; time (hr): 120
API: label(entry) gives class 1 if the entry's cell viability z-score within plate is strictly smaller than 0.2; on equality or larger values it gives class 0.

Solved entries (count: 3):
O=C1NC(=O)C(=Cc2ccc(-c3ccc(F)cc3)o2)S1 (stereo in doubt): class 0
O=C(c1ccc(/C=C/c2n[nH]c3ccccc23)cc1)N1CCNCC1: class 0
CN1CCCN(C(=O)c2cccc(-c3ccc(/C=C4/C(=O)Nc5ccc(Cl)cc54)o3)c2)CC1: class 0

Determine whether this compound shows cell viability z-score within plate lower than 0.2 (ties excluded): Cn1cnc(N)c2ncnc1-2 [3-Methyladenine (3-MA)]
class 0

Determine whether this compound shows cell viability z-score within plate lower than 0.2 (ties excluded): `Cc1cc(Nc2cc(N3CCN(C)CC3)nc(/C=C/c3ccccc3)n2)n[nH]1`
class 0

Determine whether this compound shows cell viability z-score within plate lower than 0.2 (ties excluded): COc1cc(CCc2cc(NC(=O)c3ccc(N4CC(C)NC(C)C4)cc3)n[nH]2)cc(OC)c1 (centres undefined)
class 0

Determine whether this compound shows cell viability z-score within plate lower than 0.2 (ties excluded): Oc1cc(O)cc(/C=C/c2ccc(O)c(O)c2)c1 [Piceatannol]
class 1

Determine whether this compound shows cell viability z-score within plate lower than 0.2 (ties excluded): `O=C(NCc1cccc(O)c1)Nc1nc(-c2ccncc2)cs1`
class 0

Determine whether this compound shows cell viability z-score within plate lower than 0.2 (ties excluded): C=CC(=O)Nc1cc(Nc2nccc(-c3cn(C)c4ccccc34)n2)c(OC)cc1N(C)CCN(C)C [Osimertinib (AZD9291)]
class 1

====

Test system: FLX1
Assay: cell viability z-score within plate (CellTiter-Glo), mean of 3 biological replicates; higher = higher viability relative to plate (less growth inhibition)
Details: 2 µM; time (hr): 120
value_type: cell viability z-score within plate
One number for each entry.

Use the examples below as a reference point.
Nc1ncnc2c1c(-c1cnc3[nH]ccc3c1)nn2C1CCCC1: -0.241
C=CC(=O)Nc1cccc(Sc2nc(Nc3ccc(N4CCN(C)CC4)cc3)ncc2Cl)c1: 0.081
CN1CCN(Cc2ccc(-c3cnc4[nH]cc(-c5ccc6[nH]ccc6c5)c4c3)cc2)CC1: -0.36
COc1cc2nccc(Oc3ccc(NC(=O)Nc4cc(C)on4)c(Cl)c3)c2cc1OC: -0.573
CC[C@@H]1C(=O)N(C)c2cnc(Nc3ccc(C(=O)NC4CCN(C)CC4)cc3OC)nc2N1C1CCCC1: -1.49
COc1cc(N2CCC(N(C)C)CC2)ccc1Nc1ncc(Cl)c(Nc2ccccc2P(C)(C)=O)n1: 0.0333
CN(C)CCOc1ccc(-c2nc(-c3ccncc3)c(-c3ccc4c(c3)CC/C4=N\O)[nH]2)cc1: 0.259
CN1CCC(COc2cnc(-c3cccc(Cn4nc(-c5cccc(C#N)c5)ccc4=O)c3)nc2)CC1: -0.645

// input: 6 compounds below; output: cell viability z-score within plate for each
1. CSc1cccc(Nc2ncc3cc(-c4c(Cl)cccc4Cl)c(=O)n(C)c3n2)c1
2. CNc1nc(-c2ccc3c(N)n[nH]c3c2)cc(N2C[C@@H](C(=O)NC3CCCCC3)CC[C@H]2C)n1
3. C[C@@H](Oc1cc(-n2cnc3ccc(CN4CCN(C)CC4)cc32)sc1C(N)=O)c1ccccc1C(F)(F)F
4. CC(C)c1cnn2c(NCc3ccccc3)cc(NCCCCCCN)nc12
5. O=c1ccc2ccc(O)c(O)c2o1
6. COc1c(C)c(C(=O)c2ccc(N)c(C(=O)O)c2)n2ccccc12

[0.169, 0.0251, 0.737, 0.577, 1.53, 0.661]

// input: 2 compounds below; output: cell viability z-score within plate for each
1. CCn1c2ccccc2c2cc(Nc3ccnc(NCCCN4CCOCC4)n3)ccc21
2. CNC(=O)c1ccccc1Sc1ccc2c(/C=C/c3ccccn3)n[nH]c2c1

1.38
0.834

// input: 3 compounds below; output: cell viability z-score within plate for each
1. COc1ccccc1-c1cc(Nc2cccc(CS(N)(=O)=O)c2)ncn1
2. CC(C)(C)c1cnc(CSc2cnc(NC(=O)C3CCNCC3)s2)o1
3. CCN1CCN(Cc2ccc(Nc3ncc(F)c(-c4cc(F)c5nc(C)n(C(C)C)c5c4)n3)nc2)CC1

0.545
-1.06
0.939

====

Tested on: FLX1
Assay: cell viability z-score within plate (CellTiter-Glo), mean of 3 biological replicates; higher = higher viability relative to plate (less growth inhibition)
Conditions: 2 µM; time (hr): 120
Structures can show the parent of a compound that is named as a salt.
Provide the reported cell viability z-score within plate of each item.
One number for each entry.

O=c1sn(-c2cccc3ccccc23)c(=O)n1Cc1ccccc1 [Tideglusib]: -2.63

// input: 8 molecules below; output: cell viability z-score within plate for each
1. COc1cc(Nc2ncc(F)c(Nc3ccc4c(n3)NC(=O)C(C)(C)O4)n2)cc(OC)c1OC
2. CN1CC[C@H](c2c(O)cc(O)c3c(=O)cc(-c4ccccc4Cl)oc23)[C@H](O)C1 [Flavopiridol HCl]
3. C[C@H](Nc1ncnc2nc[nH]c12)c1cc2cccc(Cl)c2c(=O)n1-c1ccccc1 [Duvelisib (IPI-145, INK1197)]
4. COc1cc2ncnc(Nc3ccc(F)c(Cl)c3)c2cc1NC(=O)/C=C/CN1CCCCC1
5. O=C(Nc1cc(C(F)(F)F)cc(C(F)(F)F)c1)c1cc(Cl)ccc1O
6. Cc1nc(Nc2ncc(C(=O)Nc3c(C)cccc3Cl)s2)cc(N2CCN(CCO)CC2)n1 [Dasatinib]
7. Cn1cc(/C=C2\C(=O)Nc3cccnc32)c2ccccc21
8. Clc1ccc(C2(c3ccc(-c4cn[nH]c4)cc3)CCNCC2)cc1

0.701
0.894
0.585
0.26
-0.692
-1.19
0.84
0.815

Just for reference, the supplement of paper PMC9925115 is where these values come from.
